tested on: SKOV3; experiment: Primary qHTS to identify gynecologic anti-cancer compounds using libraries of approved drugs and bioactive compounds (AID 1345084); conditions: Gynecologic cancer cell panel viability, ATPlite luminescence, 48 h; series mostly up to 57.5 µM; also: % is scaled to controls: 0 for no effect and ±100 for the full control effect; nearly all actives have a fitted effect of over 55% in size
Records with an inconclusive call do not appear. Calls of active or inactive are those of the source. Calls follow the shape of the dose curve; as a rule, active = well fitted cell-killing curve with a large enough effect; inconclusive = small, poorly fitted or top-dose-only effect, or effect the other way; inactive = flat fitted curve, though single readings scatter.
measured.parameter: activity change, negative = cytotoxicity

compound	measurement.target	reported.result
CC(=O)O[C@@H](C[C@@H]1C=C(C)C(=O)O1)[C@H](C)[C@H]1CCC2[C@@]3(C)CC[C@H](O[C@@H]4O[C@H](CO)[C@@H](O)[C@H](O)[C@H]4O[C@@H]4O[C@@H](C)[C@H](O)[C@@H](O)[C@H]4O)C(C)(C)C3CC[C@@]2(C)[C@@]12COC(=O)C2 (stereo partly specified)	SKOV3	14.4% [at 11.6 µM] (inactive)
CC1(C)CC[C@]2(C(=O)O[C@@H]3O[C@H](CO)[C@@H](O)[C@H](O)[C@H]3O)CC[C@]3(C)C(=CCC4[C@@]5(C)C[C@H](O)[C@H](O[C@@H]6OC[C@@H](O)[C@H](O)[C@H]6O)[C@@](C)(CO)C5CC[C@]43C)C2C1 (stereo partly specified)	SKOV3	21.5% [at 11.6 µM] (inactive)
COCCCc1sc(-c2ccccc2)nc1C(=O)Nc1ccccc1-c1nc2cc(CN3CCCC3)cnc2s1	SKOV3	inactive
COC(=O)C1=COC(O[C@@H]2O[C@H](COC(=O)/C=C/c3ccc(O)cc3)[C@@H](O)[C@H](O)[C@H]2O)C2C(CO)=CCC12 (stereo partly specified)	SKOV3	inactive
COc1cc2c(c(OC)c1O)C(c1ccc(O)cc1)C1C(=O)OC3C(COC(=O)C1=C2)OC(CO)(OC1OC(COC(=O)/C=C/c2ccc(OC4OC(C)C(O)C(O)C4O)cc2)C(O)C(O)C1O)C3O (stereo unspecified)	SKOV3	25.2% [at 11.6 µM] (inactive)
O=C(O)c1cccc(C(=O)CCC2OC(n3cnc4c(=O)[nH]cnc43)C(O)C2O)c1 (stereo unspecified)	SKOV3	inactive

----------
tested on: CAOV3; test: Primary qHTS to identify gynecologic anti-cancer compounds using libraries of approved drugs and bioactive compounds (AID 1345084); conditions: Gynecologic cancer cell panel viability, ATPlite luminescence, 48 h; series mostly up to 57.5 µM; also: % is scaled to controls: 0 for no effect and ±100 for the full control effect; nearly all actives have a fitted effect of over 55% in size
Records with an inconclusive call do not appear. Active and inactive are the calls of the source. Calls follow the shape of the dose curve; as a rule, active = well fitted cell-killing curve with a large enough effect; inconclusive = small, poorly fitted or top-dose-only effect, or effect the other way; inactive = flat fitted curve, though single readings scatter.

compound	activity change, negative = cytotoxicity
CC1(CO)CC(O)C2(C)CCC3(C)C(=CCC4C5(C=O)CCC(OC6OC(C(=O)O)C(O)C(O)C6OC6OC(C(=O)O)C(O)C(O)C6O)C(C)(C)C5CCC43C)C2C1 (configuration not stated)	8.53% [at 11.6 µM] (inactive)
N#Cc1ccc(C2CCCc3cncn32)cc1 (configuration not stated)	inactive
COC(=O)C1=COC(OC2OC(CO)C(O)C(O)C2O)C2C(COC(=O)/C=C/c3ccc(O)c(O)c3)C(O)C(O)C12 (configuration not stated)	inactive
O=C(OCC1=CC(Cl)C(O)C(OC(=O)c2ccccc2)C1O)c1ccccc1 (configuration not stated)	inactive
CCOC(=O)c1ccc(NC2CCCCC2)c(N)c1	inactive
C[C@H]1CC(=O)C2=C(C1)C(O)C(O)[C@@]1(O)[C@H]2C(=O)c2cccc(O)c2[C@@H]1O (some centres not stated)	inactive
CC1(C)CC[C@]2(C(=O)O[C@@H]3O[C@H](CO[C@@H]4O[C@H](CO[C@@H]5O[C@H](CO)[C@H](O)[C@H](O)[C@H]5O)[C@@H](O)[C@H](O)[C@H]4O)[C@@H](O)[C@H](O[C@@H]4O[C@H](CO)[C@@H](O)[C@H](O)[C@H]4O)[C@H]3O)[C@H](O)C[C@]3(C)C(=CCC4[C@@]5(C)CC[C@H](O[C@@H]6OC[C@@H](O)[C@H](O)[C@H]6O)[C@@](C)(C(=O)O)C5CC[C@]43C)[C@@H]2C1 (some centres not stated)	1.69% [at 6.55 µM] (inactive)
